# protocol.summary: Mouse PK, multiple oral dosing of single compounds
# Assay type: in vivo, KM mice
# conditions.used: KM, mouse, plasma, po, 30 mg/kg, multiple PO 30 mg/kg, times 4, mean of animals; read-out: Cmax
# From the text: Methods for combined single dosing (BGAz001–005) and dosing of single compounds multiple times (BGAz004 and BGAz005) are described in detail in the Supporting Information (PK Data). Report on PK results of BGAz-004 by multiple oral dosing 7 Materials and instrument combined dosing […]
readout.kind: Cmax (ng/mL)
Give your result in ng/mL as a bare value.

[Q] # query: Cmax of entry Brc1cc(Br)cc(C2CC(CN3CCCC3)N2Cc2ccccc2Br)c1 (stereo not shown)
[A] 364

###

Kindly supply the reported Cmax values for the records listed here.
# protocol.summary: Mouse PK, combined (cassette) dosing of BGAz-001–005
# Type: in vivo, KM mice
# conditions.used: male, KM, mouse, plasma, ip, 1 mg/kg, IP 1 mg/kg, cassette, mean of animals; read-out: Cmax
// return numeric value only (unit: ng/mL, not printed)

[Q] Fill blank: measured Cmax of the molecule FC(F)(F)Oc1ccc(C2CC(CN3CCCC3)N2Cc2ccccc2OC(F)(F)F)cc1 (stereo not drawn) is ____.
[A] 40

[Q] Repeat for the following molecule: CNCC1CC(c2ccc(OC(F)(F)F)cc2)N1Cc1ccccc1OC(F)(F)F (stereo not drawn)
[A] 41.9

[Q] Another molecule to look at: Brc1cc(Br)cc(C2CC(CN3CCCC3)N2Cc2ccccc2Br)c1 (stereo not drawn)
[A] 61

###

# protocol.summary: Mouse PK, multiple oral dosing of single compounds
# Assay type: in vivo, KM mice
# conditions.used: KM, mouse, plasma; multiple PO 30 mg/kg, times 4, mean of animals; read-out: MRT(0-t)
# Source text: Methods for combined single dosing (BGAz001–005) and dosing of single compounds multiple times (BGAz004 and BGAz005) are described in detail in the Supporting Information (PK Data). Report on PK results of BGAz-004 by multiple oral dosing 7 Materials and instrument combined dosing […]
readout.kind: MRT last (h)
Report as a plain number; the unit h is understood.

[Q] Requested field: MRT last. Item: Brc1cc(Br)cc(C2CC(CN3CCCC3)N2Cc2ccccc2Br)c1 (stereo not shown)
[A] 7.85

###

# protocol.summary: Mouse PK, multiple oral dosing of single compounds
# Assay type: in vivo, KM mice
# conditions.used: KM, mouse, plasma, po, 30 mg/kg, multiple PO, times 3, 30 mg/kg, summary table; read-out: T1/2 (converted)
# Description: Methods for combined single dosing (BGAz001–005) and dosing of single compounds multiple times (BGAz004 and BGAz005) are described in detail in the Supporting Information (PK Data). Report on PK results of BGAz-004 by multiple oral dosing 7 Materials and instrument combined dosing […]
readout.kind: half-life

[Q] # query: half-life of entry CNCC1CC(c2ccc(OC(F)(F)F)cc2)N1Cc1ccccc1OC(F)(F)F (stereo not shown) [BGAz-005]
[A] 80.4 h

###

# tested.on: CYP2D6 (Homo sapiens, UniProt P10635)
# Sequence (P10635 whole entry): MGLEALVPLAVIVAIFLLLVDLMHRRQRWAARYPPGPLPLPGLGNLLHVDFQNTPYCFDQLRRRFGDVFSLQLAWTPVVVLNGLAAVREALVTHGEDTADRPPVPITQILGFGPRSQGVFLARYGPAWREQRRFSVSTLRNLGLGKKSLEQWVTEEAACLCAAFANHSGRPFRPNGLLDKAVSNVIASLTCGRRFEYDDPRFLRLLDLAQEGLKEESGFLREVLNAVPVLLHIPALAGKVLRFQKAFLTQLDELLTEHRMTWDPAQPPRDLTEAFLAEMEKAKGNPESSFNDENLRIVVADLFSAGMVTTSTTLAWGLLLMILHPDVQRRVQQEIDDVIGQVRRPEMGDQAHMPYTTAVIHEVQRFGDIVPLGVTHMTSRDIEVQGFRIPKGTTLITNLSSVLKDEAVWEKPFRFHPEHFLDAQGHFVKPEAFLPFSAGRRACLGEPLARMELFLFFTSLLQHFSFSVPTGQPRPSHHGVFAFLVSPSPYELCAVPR
# protocol.summary: biochemical
# Type: in vitro ADME
# conditions.used: human liver microsomes, preincubated 30 min prior to NADPH; read-out: CYP2D6 [pre-inc] IC50
Please provide measured IC50 for the entries that follow.
Numbers only; they are read as nM.

[Q] # lookup: IC50 of Brc1cc(Br)cc(C2CC(CN3CCCC3)N2Cc2ccccc2Br)c1 (stereo not drawn) [BGAz-004]
[A] 1050

[Q] How about CNCC1CC(c2ccc(OC(F)(F)F)cc2)N1Cc1ccccc1OC(F)(F)F (stereo not drawn) [BGAz-005] ?
[A] 10

[Q] Do the same for FC(F)(F)Oc1ccc(C2CC(CN3CCCC3)N2Cc2ccccc2OC(F)(F)F)cc1 (stereo not drawn) [BGAz-002] please
[A] 80

###

# protocol.summary: Mouse PK, multiple oral dosing of single compounds
# Format: in vivo, KM mice
# conditions.used: KM, mouse, plasma, po, 30 mg/kg, multiple PO, times 4, 30 mg/kg, summary table; read-out: Cmax
readout.kind: Cmax
A complete answer gives the number followed by the unit.

[Q] Which value of Cmax has been reported for Brc1cc(Br)cc(C2CC(CN3CCCC3)N2Cc2ccccc2Br)c1 (stereo not shown) [BGAz-004] in the records?
[A] 364 ng/mL

###

# protocol.summary: Mouse PK, multiple oral dosing of single compounds
# Format: in vivo, KM mice
# conditions.used: KM, mouse, plasma, po, 30 mg/kg, multiple PO 30 mg/kg, times 3, mean of animals; read-out: Tmax
readout.kind: Tmax (min)
// note: answer is a bare numeric in min

[Q] Give the measured Tmax of CNCC1CC(c2ccc(OC(F)(F)F)cc2)N1Cc1ccccc1OC(F)(F)F (stereo not shown) .
[A] 52.5

###

# protocol.summary: Mouse PK, multiple oral dosing of single compounds
# Type: in vivo, KM mice
# conditions.used: KM, mouse, plasma, po, 30 mg/kg, multiple daily dosing 4 × 30 mg/kg PO; read-out: T1/2 (Mouse, P.O.) (converted)
readout.kind: half-life
For clarity, give the value followed by its unit.

[Q] half-life for Brc1cc(Br)cc(C2CC(CN3CCCC3)N2Cc2ccccc2Br)c1 (stereo not shown) ?
[A] 8.1 h

###

Give Cmax for every item shown.
# protocol.summary: Mouse PK, combined (cassette) dosing of BGAz-001–005
# Format: in vivo, KM mice
# conditions.used: male, KM, mouse, plasma, po, 5 mg/kg, PO 5 mg/kg, cassette, summary table; read-out: Cmax
# output: bare number, implied unit ng/mL

[Q] // Cmax lookup, key: CNCC1CC(c2ccc(OC(F)(F)F)cc2)N1Cc1ccccc1OC(F)(F)F (stereo not drawn)
[A] 43.1

[Q] Item: FC(F)(F)Oc1ccc(C2CC(CN3CCCC3)N2Cc2ccccc2OC(F)(F)F)cc1 (stereo not drawn)
[A] 53.9

[Q] Then Brc1cc(Br)cc(C2CC(CN3CCCC3)N2Cc2ccccc2Br)c1 (stereo not drawn) ?
[A] 87.6

###

# tested.on: hERG (Homo sapiens, UniProt Q12809)
# Sequence (Q12809 whole entry): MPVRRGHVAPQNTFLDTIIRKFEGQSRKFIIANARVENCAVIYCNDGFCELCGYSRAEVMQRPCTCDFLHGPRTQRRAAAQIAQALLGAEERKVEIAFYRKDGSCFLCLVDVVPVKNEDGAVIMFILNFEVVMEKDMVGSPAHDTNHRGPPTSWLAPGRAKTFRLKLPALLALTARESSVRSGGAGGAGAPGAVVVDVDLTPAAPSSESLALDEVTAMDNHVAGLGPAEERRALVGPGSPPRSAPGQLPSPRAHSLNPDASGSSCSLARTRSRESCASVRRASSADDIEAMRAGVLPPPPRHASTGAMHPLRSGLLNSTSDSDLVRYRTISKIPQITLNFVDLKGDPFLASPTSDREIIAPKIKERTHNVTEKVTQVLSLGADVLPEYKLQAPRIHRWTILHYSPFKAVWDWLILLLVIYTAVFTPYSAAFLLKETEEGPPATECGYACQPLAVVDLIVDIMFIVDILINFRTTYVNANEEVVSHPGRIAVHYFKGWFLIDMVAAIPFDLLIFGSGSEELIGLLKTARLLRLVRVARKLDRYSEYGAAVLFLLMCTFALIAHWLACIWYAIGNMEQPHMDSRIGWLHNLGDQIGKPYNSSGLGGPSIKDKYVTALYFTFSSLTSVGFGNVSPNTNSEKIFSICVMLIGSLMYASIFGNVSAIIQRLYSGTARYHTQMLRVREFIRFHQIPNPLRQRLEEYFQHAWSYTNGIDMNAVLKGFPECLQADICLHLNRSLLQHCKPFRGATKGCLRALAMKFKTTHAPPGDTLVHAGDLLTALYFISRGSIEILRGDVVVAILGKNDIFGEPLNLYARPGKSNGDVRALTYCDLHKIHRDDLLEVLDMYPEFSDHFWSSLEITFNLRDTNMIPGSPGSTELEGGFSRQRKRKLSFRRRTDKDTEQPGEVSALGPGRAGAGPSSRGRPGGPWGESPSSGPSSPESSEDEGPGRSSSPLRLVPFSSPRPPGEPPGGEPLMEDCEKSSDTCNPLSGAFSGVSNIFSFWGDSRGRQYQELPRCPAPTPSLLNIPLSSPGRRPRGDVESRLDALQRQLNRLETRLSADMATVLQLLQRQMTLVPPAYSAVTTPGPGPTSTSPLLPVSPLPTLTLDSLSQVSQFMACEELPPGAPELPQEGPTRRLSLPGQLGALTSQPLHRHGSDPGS
# protocol.summary: in vitro
# Type: cell-based
# conditions.used: human, CHO cells stably expressing hERG, pH 7.4; CHO cells expressing hERG, eight-point curve
pIC50: −log10 of the molar value.
readout.kind: pIC50

[Q] Missing value: pIC50, hERG (Homo sapiens, UniProt Q12809), entry FC(F)(F)Oc1ccc(C2CC(CN3CCCC3)N2Cc2ccccc2OC(F)(F)F)cc1 (stereo not shown) [BGAz-002] . Fill in?
[A] < 3.78

###

# protocol.summary: Mouse PK, multiple oral dosing of single compounds
# Assay type: in vivo, KM mice
# conditions.used: KM, mouse, plasma; multiple PO 30 mg/kg, times 3, mean of animals; read-out: Vz/F
readout.kind: Vd/F (L/kg)
Hi! Could you send only the number? It should be in L/kg, unit omitted.

[Q] Would you kindly share the measured Vd/F for CNCC1CC(c2ccc(OC(F)(F)F)cc2)N1Cc1ccccc1OC(F)(F)F (stereo not shown) ?
[A] 34.4

###

# protocol.summary: Mouse PK, multiple oral dosing of single compounds
# Assay type: in vivo, KM mice
# conditions.used: KM, mouse, plasma; multiple PO 30 mg/kg, times 3, mean of animals; read-out: CLz/F (converted)
readout.kind: CL/F (mL/min/kg)
Express your answer in mL/min/kg, writing the number without its unit.

[Q] Could you share which CL/F value was measured for CNCC1CC(c2ccc(OC(F)(F)F)cc2)N1Cc1ccccc1OC(F)(F)F (stereo not shown) ?
[A] 13.1

###

# protocol.summary: Mouse PK, multiple oral dosing of single compounds
# Format: in vivo, KM mice
# conditions.used: KM, mouse, plasma, po, 30 mg/kg, multiple PO 30 mg/kg, times 4, mean of animals; read-out: Tmax
readout.kind: Tmax (h)
Use h as the unit, but write only the number.

[Q] Bench note: what Tmax did Brc1cc(Br)cc(C2CC(CN3CCCC3)N2Cc2ccccc2Br)c1 (stereo not shown) show?
[A] 1

###

# protocol.summary: Mouse PK, combined (cassette) dosing of BGAz-001–005
# Format: in vivo, KM mice
# conditions.used: male, KM, mouse, plasma, iv, 1 mg/kg, IV 1 mg/kg, cassette, summary table; read-out: Cmax
readout.kind: Cmax (ng/mL)
Numbers only; they are read as ng/mL.

[Q] Sample Brc1cc(Br)cc(C2CC(CN3CCCC3)N2Cc2ccccc2Br)c1 (stereo not drawn) — what was its Cmax?
[A] 278

[Q] FC(F)(F)Oc1ccc(C2CC(CN3CCCC3)N2Cc2ccccc2OC(F)(F)F)cc1 (stereo not drawn) , same question.
[A] 189

[Q] Same thing, different molecule: CNCC1CC(c2ccc(OC(F)(F)F)cc2)N1Cc1ccccc1OC(F)(F)F (stereo not drawn)
[A] 320

###

# protocol.summary: Mouse PK, combined (cassette) dosing of BGAz-001–005
# Assay type: in vivo, KM mice
# conditions.used: male, KM, mouse, plasma, iv, 1 mg/kg, IV 1 mg/kg, cassette, mean of animals; read-out: AUC(0-∞)
Provide the recorded AUC(0-inf) for the entries that follow.
Numeric only. Scale: ng·h/mL

[Q] Using the record for Brc1cc(Br)cc(C2CC(CN3CCCC3)N2Cc2ccccc2Br)c1 (centres unmarked) , report its AUC(0-inf).
[A] 789

[Q] Same again, this time with CNCC1CC(c2ccc(OC(F)(F)F)cc2)N1Cc1ccccc1OC(F)(F)F (centres unmarked)
[A] 425

Value source: paper PMC10895678
